Tested on: MET
Assay: MET biochemical kinase assay
Set-up: species or system human; concentration or dose not given beside the values
Description: A met biochemical kinase assay may be performed for met generally as described above for other kinases by substituting that or the other kinases. […] Incorporation of phosphate into the captured receptors is detected with an anti-phosphotyrosine antibody conjugate with horse radish peroxidase using TMB as a substrate for colorimetric detection.
# label = 1 (yes) if Met Kinase % Inhibition >= 50% else 0 (no)

Exercise: Exam item: decide whether the reported Met Kinase % Inhibition for O=C1Nc2ccc(S(=O)(=O)Nc3ccc(C(F)(F)F)cc3)cc2C1=Cc1cc2c(cc1Cl)OCO2 [10727/E06] is at least 50%.
Key: 0 (no)

Exercise: Answer whether Met Kinase % Inhibition of CNS(=O)(=O)c1ccc2c(c1)C(=Cc1cc(C)c(C)s1)C(=O)N2 [10721/D04] is greater than or equal to 50%.
Key: 0 (no)

Exercise: Reported Met Kinase % Inhibition reaches at least 50% for O=C1Nc2c(Br)cc(Br)cc2C1=Cc1coc2ccccc2c1=O [10727/A07] ?
Key: 1 (yes)

Exercise: Does the reported Met Kinase % Inhibition for COc1cc(C)cc(O)c1C=C1C(=O)Nc2c(Br)cc(Br)cc21 [10725/A06] fall at or above the 50% mark?
Key: 1 (yes)

Exercise: Quick check, Met Kinase % Inhibition >= 50%? CNS(=O)(=O)c1ccc2c(c1)C(=Cc1[nH]c(Cl)c(CC(=O)OC)c1C(=O)OC)C(=O)N2 [10725/D09]
Key: 0 (no)

Cited source: patent EP1247803A2
